MEASUREMENT PROTOCOL: Therapeutic index, ratio of MTD for Swiss mouse to MID for Herpesvirus 1 123 infected in Swiss mouse
CONDITION SET: read-out: TI

# MOLECULE SMILES, selectivity ratio
rows = [
    ("Nc1nc2c(ncn2[C@@H]2O[C@@H]3COP(=O)(O)O[C@@H]3[C@H]2O)c(=O)[nH]1", "≥ 4"),
]

###

# MCC at 72 h values compiled below
MEASUREMENT PROTOCOL: Cytotoxicity against human KB cells after 72 hrs
Format: cell-based
TEST READOUT: MCC at 72 h

# MOLECULE SMILES, RESULT
measured = [
    ("Nc1nc2c(ncn2[C@@H]2O[C@H](CO)[C@H](O)[C@H]2O)c(=O)[nH]1", "10 µg/mL"),
    ("Nc1ncnc2c1ncn2[C@@H]1O[C@H](CO)[C@@H](O)[C@@H]1O", "3.2 µg/mL"),
    ("Nc1nc2c(ncn2[C@@H]2O[C@@H]3COP(=O)(O)O[C@@H]3[C@H]2O)c(=O)[nH]1", "32 µg/mL"),
    ("Nc1nc(O)c2ncn([C@@H]3O[C@H](COP(=O)(O)O)[C@H](O)[C@H]3O)c2n1", "3.2 µg/mL"),
]
